Sequence of the target: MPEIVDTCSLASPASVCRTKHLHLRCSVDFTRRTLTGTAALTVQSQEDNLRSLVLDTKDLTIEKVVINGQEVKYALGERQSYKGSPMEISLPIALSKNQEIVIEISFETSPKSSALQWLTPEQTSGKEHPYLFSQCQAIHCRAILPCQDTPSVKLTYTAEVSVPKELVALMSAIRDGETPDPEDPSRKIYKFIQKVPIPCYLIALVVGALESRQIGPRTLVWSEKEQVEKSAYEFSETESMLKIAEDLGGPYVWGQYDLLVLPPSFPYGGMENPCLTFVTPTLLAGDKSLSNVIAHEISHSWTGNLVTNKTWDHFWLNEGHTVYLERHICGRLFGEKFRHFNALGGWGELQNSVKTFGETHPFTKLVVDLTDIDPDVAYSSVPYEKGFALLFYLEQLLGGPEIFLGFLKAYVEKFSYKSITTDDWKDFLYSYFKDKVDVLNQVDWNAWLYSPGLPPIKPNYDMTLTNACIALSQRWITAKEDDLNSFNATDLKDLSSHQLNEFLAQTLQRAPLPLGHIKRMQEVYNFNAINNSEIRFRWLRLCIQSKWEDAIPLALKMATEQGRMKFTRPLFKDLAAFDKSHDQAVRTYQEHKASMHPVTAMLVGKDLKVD
assayReadout: pKi
Lab note: report pKi as minus log10 of the concentration in molar units, number only.

Form: molecule = `N[C@@H](Cc1ccccc1)C(=O)Cc1ccccc1` ; pKi = 4.85

====

Tested on: LTB4 Formation in intact PMNL
Test: LTB4 formation in calcium ionophore A-23187-stimulated intact PMNL
Type: cell-based
Details: Homo sapiens, PMNL; calcium ionophore A-23187-stimulated; dose dependent
I'd be grateful if you could share measured IC50 for these entries.

Form: molecule = `N[C@@H](Cc1ccc(OCc2ccccc2)cc1)[C@H](O)C(=O)OCc1ccccc1` ; IC50 = 100 to 200 nM

Form: molecule = Cl.N[C@H](CS)Cc1ccc(OCc2ccccc2)cc1 [Compound 27, HCl] ; IC50 = 100 to 200 nM
